src = paper PMC10531985

Target: nucleolin (NCL) (Homo sapiens, UniProt P19338 1-710)
Sequence (P19338 whole entry): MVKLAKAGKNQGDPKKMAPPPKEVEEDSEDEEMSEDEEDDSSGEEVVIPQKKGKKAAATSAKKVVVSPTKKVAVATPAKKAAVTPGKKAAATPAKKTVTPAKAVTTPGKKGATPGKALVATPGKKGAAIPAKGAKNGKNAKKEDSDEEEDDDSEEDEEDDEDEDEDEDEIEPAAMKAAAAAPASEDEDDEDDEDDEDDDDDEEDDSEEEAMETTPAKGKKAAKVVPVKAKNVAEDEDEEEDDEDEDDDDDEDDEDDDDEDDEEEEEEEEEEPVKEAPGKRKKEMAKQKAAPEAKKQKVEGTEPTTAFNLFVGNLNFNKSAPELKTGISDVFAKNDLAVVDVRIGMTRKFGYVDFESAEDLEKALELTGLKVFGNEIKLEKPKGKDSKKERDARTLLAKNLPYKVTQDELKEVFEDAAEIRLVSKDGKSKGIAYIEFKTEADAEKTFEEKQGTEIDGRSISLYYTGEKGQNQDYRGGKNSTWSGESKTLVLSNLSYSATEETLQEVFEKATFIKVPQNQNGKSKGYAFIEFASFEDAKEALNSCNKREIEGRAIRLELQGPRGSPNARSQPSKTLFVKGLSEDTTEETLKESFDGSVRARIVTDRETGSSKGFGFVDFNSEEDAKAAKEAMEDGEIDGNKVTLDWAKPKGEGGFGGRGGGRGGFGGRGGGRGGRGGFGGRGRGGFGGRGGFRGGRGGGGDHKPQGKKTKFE
Assay: EMSA; K+; SPR: 10 mM HEPES, 150 mM KCl, 3 mM EDTA, pH 7.4, NCL on CM5 chip, temperature not stated; EMSA: 5x binding buffer listed as 40 mM Tris, 30 mM KCl, 1 mM MgCl2, 1 mM DTT, pH 8.0, 200 nM probe, room temperature 25 min, gel with 20 mM KCl at 4 C
Conditions: protein: recombinant; label: 5'-FAM; parallel G4
QUANTITY_MEASURED: Kd
Field note: include the unit after the figure.

Q. Given the entry GUUAGGGUUUAUGGGAUUG (structured_RNA) [Apt-3-F] , report its measured Kd.
A. 77.1 nM
